Target: CARM1 (Mus musculus)
Construct: corresponding to the PRMT core (residues 130–497, mmCARM1_130–497) were amplified by PCR; GST (followed by TEV protease cleavage site) (N, cleaved yes)
Sequence (Q9WVG6 130-497): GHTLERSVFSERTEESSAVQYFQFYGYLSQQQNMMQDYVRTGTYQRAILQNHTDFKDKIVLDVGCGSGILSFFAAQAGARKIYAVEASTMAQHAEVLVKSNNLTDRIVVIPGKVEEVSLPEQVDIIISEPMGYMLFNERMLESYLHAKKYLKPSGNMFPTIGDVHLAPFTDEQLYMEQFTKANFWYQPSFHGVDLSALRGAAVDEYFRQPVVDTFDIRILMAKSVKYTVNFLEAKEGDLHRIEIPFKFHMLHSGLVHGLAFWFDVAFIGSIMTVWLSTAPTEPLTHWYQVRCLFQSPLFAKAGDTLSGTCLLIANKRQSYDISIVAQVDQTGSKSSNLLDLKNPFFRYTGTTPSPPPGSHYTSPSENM
Assay: MRM LC-MS CARM1 enzyme inhibition assay (PABP1 456–466 peptide substrate, direct detection of aDMA product)
Details: 286 nM CARM1, 12 μM PABP1 456–466, 10 μM AdoMet, 15 min preincubation, 2 h room temperature; duplicate data, ± SD
Protocol: The positive clones were confirmed by sequencing (GATC). The sequences were subcloned in a pDEST20 vector using an LR reaction. […] The supernatant (60 μL) was transferred to a new 96-well plate and analyzed. […] The supernatant (60 μL) was transferred to a new 96-well plate and analyzed by LC-MS as described above. […] For quantification of the methylated product, the area ratio of analyte to internal standard was calculated and quantified using the linearity line obtained with the reference standards. […]
*1 amine or outer side, *2 acyl side, *3 side chain or, on linkers, in order; H or OH if unused. Where a SMILES comes first, the peptide text is derived from it. [ ]: non-standard residue; d: D form. X1 = N=C(NCCC[C@H](N[*:1])C(=O)[*:2])NCCC[C@H]1O[C@@H](n2cnc3c(N)ncnc32)[C@H](O)[C@@H]1O
Recorded metric: IC50
Hi, when you answer, please include the unit after the number. Thanks!

Molecule: CC(=O)N[C@@H](CO)C(=O)N[C@H](C(=O)NCC(=O)NCC(=O)N[C@@H](CCCCN)C(=O)N[C@@H](C)C(=O)N1CCC[C@H]1C(=O)N[C@@H](CCCNC(=N)NCCC[C@H]1O[C@@H](n2cnc3c(N)ncnc32)[C@H](O)[C@@H]1O)C(=O)N[C@@H](CCCCN)C(=O)N[C@@H](CCC(N)=O)C(=O)N[C@@H](CC(C)C)C(=O)N[C@@H](C)C(=O)N[C@H](C(=O)N[C@@H](CCCCN)C(=O)N[C@@H](C)C(=O)N[C@@H](C)C(N)=O)[C@@H](C)O)[C@@H](C)O [Compound 5] (Ac-STGGKAP[X1]KQLATKAA-NH2)
Recorded metric: IC50
Measured result: 770 nM

Molecule: CC(C)Oc1ccc(-c2c[nH]cc2CN(C)CCN)cc1 [Compound 2, reference compound]
Recorded metric: IC50
Measured result: 327 nM

Molecule: Nc1ncnc2c1ncn2[C@@H]1O[C@H](CSCC[C@H](N)C(=O)O)[C@@H](O)[C@H]1O [Compound 1, S-adenosyl-L-homocysteine, reference compound]
Recorded metric: IC50
Measured result: 873 nM

Molecule: CC(=O)N[C@@H](C)C(=O)N1CCC[C@H]1C(=O)N[C@@H](CCCNC(=N)NCCC[C@H]1O[C@@H](n2cnc3c(N)ncnc32)[C@H](O)[C@@H]1O)C(=O)N[C@@H](CCCCN)C(=O)N[C@@H](CCC(N)=O)C(=O)N[C@@H](CC(C)C)C(N)=O [Compound 7] (Ac-AP[X1]KQL-NH2)
Recorded metric: IC50
Measured result: 617 nM

Query molecule follows.
Prompt: Please provide the recorded IC50 for CSCC[C@H](NC(=O)[C@@H](NC(=O)[C@H](CO)NC(=O)[C@H](Cc1ccccc1)NC(=O)[C@@H]1CCCN1C(=O)[C@@H]1CCCN1C(=O)[C@H](CCCNC(=N)NCCC[C@H]1O[C@@H](n2cnc3c(N)ncnc32)[C@H](O)[C@@H]1O)NC(=O)[C@@H]1CCCN1C(=O)[C@H](C)NC(=O)[C@H](C)NC(=O)[C@@H]1CCCN1C(C)=O)[C@@H](C)O)C(N)=O [Compound 9] (Ac-PAAP[X1]PPFSTM-NH2) , tested on CARM1 (Mus musculus).
Completion: 212 nM

====

Target: CARM1 (Mus musculus, UniProt Q9WVG6)
Construct: corresponding to the PRMT core (residues 130–497, mmCARM1_130–497) were amplified by PCR; GST (followed by TEV protease cleavage site) (N, cleaved yes)
Test: MRM LC-MS CARM1 enzyme inhibition assay (PABP1 456–466 peptide substrate, direct detection of aDMA product)
Details: 286 nM CARM1, 12 μM PABP1 456–466, 10 μM AdoMet, 15 min preincubation, 2 h room temperature; duplicate data, ± SD
*1 amine or outer side, *2 acyl side, *3 side chain or, on linkers, in order; H or OH if unused. Where a SMILES comes first, the peptide text is derived from it. [ ]: non-standard residue; d: D form. X1 = N=C(NCCC[C@H](N[*:1])C(=O)[*:2])NCCC[C@H]1O[C@@H](n2cnc3c(N)ncnc32)[C@H](O)[C@@H]1O
Recorded metric: pIC50
Reminder that pIC50 means the negative base-10 logarithm of the concentration expressed in mol/L.

These solved cases illustrate the format of a correct answer.
Compound: CC(=O)N[C@@H](CCCCN)C(=O)N[C@@H](C)C(=O)N1CCC[C@H]1C(=O)N[C@@H](CCCNC(=N)NCCC[C@H]1O[C@@H](n2cnc3c(N)ncnc32)[C@H](O)[C@@H]1O)C(=O)N[C@@H](CCCCN)C(=O)N[C@@H](CCC(N)=O)C(=O)N[C@@H](CC(C)C)C(=O)N[C@@H](C)C(N)=O [Compound 6] (Ac-KAP[X1]KQLA-NH2)
Recorded metric: pIC50
Measured result: 6.39
--
Compound: CC(=O)N1CCC[C@H]1C(=O)N[C@@H](CCCNC(=N)NCCC[C@H]1O[C@@H](n2cnc3c(N)ncnc32)[C@H](O)[C@@H]1O)C(=O)N[C@@H](CCCCN)C(=O)N[C@@H](CCC(N)=O)C(N)=O [Compound 8]
Recorded metric: pIC50
Measured result: 5.84

Then there is this compound:
Prompt: # query: pIC50 of entry CNCCN1CCC(c2cc(CN(C)C(=O)c3cccc(Oc4ccccc4)c3)ccn2)CC1 [Compound 4, reference compound]
Completion: 6.79

====

Biological target: UniProt:Q86X55
Sequence (Q86X55 whole entry): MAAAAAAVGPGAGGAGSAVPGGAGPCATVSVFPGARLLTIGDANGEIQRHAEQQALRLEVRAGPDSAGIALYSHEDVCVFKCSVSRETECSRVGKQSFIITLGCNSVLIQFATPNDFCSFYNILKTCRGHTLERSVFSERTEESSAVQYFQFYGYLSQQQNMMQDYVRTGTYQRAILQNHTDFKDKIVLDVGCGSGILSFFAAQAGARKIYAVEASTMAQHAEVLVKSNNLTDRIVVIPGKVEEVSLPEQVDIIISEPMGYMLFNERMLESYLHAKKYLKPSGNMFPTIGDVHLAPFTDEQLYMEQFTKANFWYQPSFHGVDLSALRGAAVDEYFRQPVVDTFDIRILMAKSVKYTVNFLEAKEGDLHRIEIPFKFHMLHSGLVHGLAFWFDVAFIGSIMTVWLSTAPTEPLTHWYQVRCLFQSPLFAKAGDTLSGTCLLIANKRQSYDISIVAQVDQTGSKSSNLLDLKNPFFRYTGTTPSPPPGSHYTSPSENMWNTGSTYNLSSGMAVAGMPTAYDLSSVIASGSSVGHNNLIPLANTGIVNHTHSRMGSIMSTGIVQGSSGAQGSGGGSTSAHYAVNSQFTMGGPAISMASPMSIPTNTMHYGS
Test: commercially available chemiluminescent antibody-based ELISA kit (histone H3-derived peptide, aDMA at H3-R17)
Format: biochemical
Recorded metric: IC50 (nM)
Give your result in nM as a bare value.

Prompt: Quick one: IC50 of CC(C)Oc1ccc(-c2c[nH]cc2CN(C)CCN)cc1 [Compound 2, reference compound] ?
Completion: 101
